B1: TPR 5TU (parent)
chain: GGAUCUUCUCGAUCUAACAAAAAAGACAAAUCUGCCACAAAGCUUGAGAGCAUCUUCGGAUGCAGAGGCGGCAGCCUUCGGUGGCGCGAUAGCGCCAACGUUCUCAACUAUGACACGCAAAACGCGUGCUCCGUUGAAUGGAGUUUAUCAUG

Variants of: B1
test_protocol: polymerase ribozyme fitness, log enrichment relative to wild type (log ratio); higher = more active; in vitro selection for triplet polymerase activity
Fewer inactive variants are shown than the library holds.
Exercise: state measured polymerase ribozyme fitness (log ratio) for each of the variants provided.
Answers are plain numbers.

Recorded polymerase ribozyme fitness (log ratio), per entry:
{"columns": ["variant_string", "endpoint_value"],
 "data": [
  ["A73G C93U G152A", -2.84],
  ["C57G G117U G124C", -1.64],
  ["G92C U148C", -2.56]
]}

State recorded polymerase ribozyme fitness (log ratio) for all listed variants.
1. C75U A142C
2. C35A C76A
3. A39U U101G

1: -1.32; 2: -4.08; 3: -2.05
